Value source: patent US10363231B2

target: LRAT (Bos taurus); construct: incubated with RPF microsomes that served as a source of LRAT enzymatic activity; from tissue; host or cells: bovine retinal pigment epithelium (RPE) microsomes; experiment: LRAT activity assay with bovine RPE microsomes (esterification of the corresponding primary alcohols); type: biochemical; details: percentage of the corresponding primary alcohol esterified by LRAT in 1 h at 37° C; 10 μM; RPE microsomes
Sequence (Q9BGL2 whole entry): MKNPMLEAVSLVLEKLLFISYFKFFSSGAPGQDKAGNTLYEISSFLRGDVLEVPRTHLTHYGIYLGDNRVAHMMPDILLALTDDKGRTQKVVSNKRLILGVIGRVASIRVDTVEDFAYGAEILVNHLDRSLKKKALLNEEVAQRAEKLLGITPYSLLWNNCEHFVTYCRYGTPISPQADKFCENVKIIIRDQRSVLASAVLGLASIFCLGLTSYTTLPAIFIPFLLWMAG
LRAT Substrate values for the molecules below.
Hi! Could you send only the number? It should be in %, unit omitted.

Would you please look over these solved cases?
CC1=C(/C=C/C(=C/C=C/CN)C(C)(C)C)C(C)(C)CCC1 [TEA-B-001-NH2] : 100
CC1=C(/C=C/C(C)=C/C=C/C(C)=C/C=C/CN)C(C)(C)CC(O)C1 (stereo not shown) [PEA-A-003-NH2] : 90
CC1=C(/C=C/C(C)=C/C=C/C=C/CN)C(C)(C)CCC1 [QEA-A-004-NH2] : 100

Here's the next entry for you.
Please indicate LRAT Substrate recorded for CC1=C(/C=C/C(C)=C/C=C/C(C)=C/C=C/CN)C(C)(C)CCC1 [PEA-A-001-NH2] 100

====

biological target: RPE65 (Bos taurus, UniProt Q28175); construct: from tissue; host or cells: bovine retinal pigment epithelium (RPE) microsomes; test: Retinoid isomerase activity assay (11-cis-retinol production in RPE microsomes); assay type: biochemical, Bovine; conditions: primary amine; decline in 11-cis-retinol production in RPE microsomes; read-out: Inhibition of RPE65
Sequence (Q28175 whole entry): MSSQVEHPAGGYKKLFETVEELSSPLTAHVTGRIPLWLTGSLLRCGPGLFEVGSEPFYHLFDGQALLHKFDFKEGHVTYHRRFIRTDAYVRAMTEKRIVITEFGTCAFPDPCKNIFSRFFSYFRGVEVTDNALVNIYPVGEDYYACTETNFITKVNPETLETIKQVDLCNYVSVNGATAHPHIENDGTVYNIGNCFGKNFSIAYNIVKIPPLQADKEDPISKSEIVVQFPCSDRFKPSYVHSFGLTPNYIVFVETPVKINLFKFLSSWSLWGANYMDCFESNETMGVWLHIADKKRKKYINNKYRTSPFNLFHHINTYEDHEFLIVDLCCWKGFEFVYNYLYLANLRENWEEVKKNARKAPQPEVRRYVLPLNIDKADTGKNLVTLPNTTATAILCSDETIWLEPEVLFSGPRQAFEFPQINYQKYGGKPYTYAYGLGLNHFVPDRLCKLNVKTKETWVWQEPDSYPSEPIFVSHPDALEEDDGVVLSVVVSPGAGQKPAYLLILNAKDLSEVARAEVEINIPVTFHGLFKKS
MEASUREMENT TYPE: IC50

Would you please look over these solved cases?
CC1=C(/C=C/C(C)=C/C=C/CN)C(C)(C)CCC1O (stereo not shown) : < 10 µM
CC(/C=C/C1=CCCCC1)=C\C=C\C(C)=C\CN : 10 to 100 µM
CC(/C=C/C=C(/C=C/C1=CCCCC1)C(C)(C)C)=C\CN : > 200 µM
CC1=C(/C=C/C(=C/C=C/CN)C(C)(C)C)C(C)(C)CCC1 : > 200 µM
CC1=C(/C=C/C(C)=C/C=C/C(C)=C/C=C/CN)C(C)(C)CC(O)C1 (stereo not shown) : < 10 µM
CC1=C(/C=C/C=C/C=C/C=C/CN)C(C)(C)CCC1 : < 10 µM

Please indicate IC50 recorded for CC1=C(/C=C/C(C)=C/C=C/C=C/CN)C(C)(C)CCC1 < 10 µM

Please indicate IC50 recorded for CC1=C(/C=C/C(C)=C/C=C/C(C)=C/CN)C(C)(C)CCC1 < 10 µM

Please indicate IC50 recorded for NC/C=C/C=C(/C=C/C1=CCCCC1)c1ccccc1 > 200 µM

Please indicate IC50 recorded for CC(/C=C/C=C(/C=C/c1ccccc1)C(C)(C)C)=C\CN > 200 µM
